# Cond: buffer; pH 7.4; 200.0 µM
Each record here notes measured solubility kinetic.
# unit: µg/mL | format: bare number

Examples with their reported solubility kinetic follow.
Cc1ccc(NC(=O)CCc2ccc(C)o2)c(Br)c1 = 4.2
CC1(C)Cc2c(sc3c2c(N)nc(=S)n3Cc2ccccc2)CO1 = 2.3

Q) Which solubility kinetic value belongs to "COc1ccc(CCNC(=O)COC(=O)c2cc(Cl)nc(Cl)c2)cc1" ?
A) 23.6

Q) Which solubility kinetic value belongs to "O=C(Nc1cccc(C(=O)NC2CCCCC2)c1)c1ccccc1" ?
A) 2.8

Q) Which solubility kinetic value belongs to "COC(=O)c1sccc1NC(=O)Nc1ccc(C(C)=O)cc1" ?
A) 8.4

Q) Which solubility kinetic value belongs to "Cc1ccc2cccc(OC(=O)/C=C\c3ccccc3)c2n1" ?
A) 16.8

Q) Which solubility kinetic value belongs to "CCCSc1nc2c(c(=O)[nH]c(=O)n2C)n1Cc1ccccc1" ?
A) 1.6

Q) Which solubility kinetic value belongs to "Cc1cc(Br)cc2c1N(C)C(=O)C2(c1ccc(O)cc1)c1ccc(O)cc1" ?
A) 7.4

Q) Which solubility kinetic value belongs to "Cc1csc(NC(=O)c2c(-c3ccccc3)noc2C)n1" ?
A) 37.4

Q) Which solubility kinetic value belongs to "O=C(Nc1cc([N+](=O)[O-])ccc1N1CCCC1)c1ccco1" ?
A) 40.9

Q) Which solubility kinetic value belongs to "O=C(Nc1ccc(Cl)cc1)C1(S(=O)(=O)c2ccccc2)CC1" ?
A) 7.7

Q) Which solubility kinetic value belongs to "Cc1ccc(CSc2[nH]c(=O)ncc2C)cc1" ?
A) 11

* * *

# Cond: buffer; pH 7.4; 200.0 µM
Reported Property: solubility kinetic (µg/mL)
# unit: µg/mL | format: bare number

Cc1c(C(=O)Nc2ccccn2)sc2nc3n(c(=O)c12)CCC3 = 32.9
Cc1nc2ccc(NC(=O)c3ccc(Br)o3)cc2s1 = 5.1

Q) Which solubility kinetic value belongs to "Cc1ccc(C(=O)NCCN2CCN(C(=O)c3ccc(C)c(C)c3)CC2)cc1C" ?
A) 53.1

* * *

# Cond: buffer; pH 7.4; 200.0 µM
Reported Property: solubility kinetic (µg/mL)
# unit: µg/mL | format: bare number

Examples with their reported solubility kinetic follow.
NC(N)=NS(=O)(=O)c1ccc(NC(=S)NC(=O)c2ccccc2)cc1 = 3.9
O=C(CC1SC(N2CCOCC2)=NC1=O)Nc1ccc(Cl)c(C(F)(F)F)c1 (stereo not drawn) = 4.4
Cc1ccc(O)c(CNc2nc3ccccc3n2C(C)C)c1 = 0.6
O=C(NCc1ccco1)c1ccccc1O = 22.9
Cc1cc(C(C)(C)C)cc(C)c1S(=O)(=O)N1CC(=O)Nc2ccccc21 = 5.7
COc1ccc(NC(=O)C2CCN(C(=O)c3ccco3)CC2)c(OC)c1 = 44.2

Q) Which solubility kinetic value belongs to "O=C(NC1CC1)c1cc2cc3ccccc3nc2s1" ?
A) 0.9

Q) Which solubility kinetic value belongs to "NS(=O)(=O)c1ccc(CCNC(=O)c2ccc3ccccc3n2)cc1" ?
A) 10.6

Q) Which solubility kinetic value belongs to "Cc1nc([N+](=O)[O-])cn1CCCCN1C(=O)c2ccccc2C1=O" ?
A) 8.3

* * *

# Cond: buffer; pH 7.4; 200.0 µM
Reported Property: log10(solubility kinetic) (log10 of the value in µg/mL)
Values are log10 of solubility kinetic in µg/mL.

Examples with their reported log10(solubility kinetic) follow.
COc1cccc(-c2ccc3c(N)c(C(=O)NC4CC4)sc3n2)c1 = 1.18
COc1cccc(-c2nc3ccc(N4CCN(C)CC4)cc3[nH]2)c1 = 1.16
COC(=O)c1cc(NC(=S)NC(=O)c2ccccc2)ccc1N1CCOCC1 = 0.26
CCOC(=O)NC(=S)Nc1ccc(C(C)(C)C)cc1Br = 0.20
O=C1CN(C(=O)COC(=O)[C@@H]2CCCN2S(=O)(=O)c2ccc(Cl)cc2)c2ccccc2N1 = 1.77

Attention now turns to another entry.
Q) Which log10(solubility kinetic) value belongs to "CC(=O)c1ccc(NC(=S)Nc2ccc3[nH]c(=O)[nH]c3c2)cc1" ?
A) 0.75

All figures here come from PubChem BioAssay AID1996.
